Where do the numbers come from? From PubChem BioAssay (Tox21).

# Method Description: qHTS assay to identify small molecule agonists of the endoplasmic reticulum stress response signaling pathway - cell viability counter screen (AID 1159517); also: nearly all actives have a fitted effect of over 50% in size
# Experimental Conditions: ESRE-bla HeLa viability, CellTiter-Glo luminescence, 5 h; series mostly up to 61 µM
Records with an inconclusive call do not appear. Calls of active or inactive are those of the source. Calls follow the shape of the full dose curve.
Classes used: active, inactive

{"Compound": "CC12CC3CC(C)(C1)CC(N)(C3)C2", "Class Assignment": "inactive"}
{"Compound": "NC(=O)CCCCC(N)=O", "Class Assignment": "inactive"}
{"Compound": "CC1CCC(C(C)CS)CC1S (stereo unspecified)", "Class Assignment": "active"}
{"Compound": "COc1ccc(-n2nc(C(F)F)cc2-c2ccc(S(C)=O)cc2)cc1 (stereo unspecified)", "Class Assignment": "inactive"}
{"Compound": "CCO[Si](C)(CCCOCC1CO1)OCC (stereo unspecified)", "Class Assignment": "inactive"}
{"Compound": "Oc1cccc2[nH]ccc12", "Class Assignment": "inactive"}
{"Compound": "Cc1cc(CCC(=O)OCCOCCOCCOC(=O)CCc2cc(C)c(O)c(C(C)(C)C)c2)cc(C(C)(C)C)c1O", "Class Assignment": "inactive"}
{"Compound": "CCCc1nc2c(C)cc(-c3nc4ccccc4n3C)cc2n1Cc1ccc(-c2ccccc2C(=O)O)cc1", "Class Assignment": "inactive"}
{"Compound": "SCCc1cnccn1", "Class Assignment": "inactive"}
{"Compound": "CC(CCc1ccc(O)cc1)NCCc1ccc(O)c(O)c1 (stereo unspecified)", "Class Assignment": "inactive"}
{"Compound": "COc1ccc(CCN(C)CCCN2CCc3cc(OC)c(OC)cc3CC2=O)cc1OC", "Class Assignment": "inactive"}
{"Compound": "CC/C=C\\C/C=C\\C/C=C\\CCCCCCCC(=O)OCC", "Class Assignment": "inactive"}
{"Compound": "CC(C(=O)O)c1ccc(C(=O)c2cccs2)cc1 (stereo unspecified)", "Class Assignment": "inactive"}
{"Compound": "NC(=O)c1ccccc1[N+](=O)[O-]", "Class Assignment": "inactive"}
{"Compound": "CCN(CC)C(=O)N1CCN(C)CC1", "Class Assignment": "inactive"}
{"Compound": "CCCCC[C@H](O)/C=C/[C@H]1[C@H](O)CC(=O)[C@@H]1C/C=C\\CCCC(=O)O", "Class Assignment": "inactive"}
{"Compound": "N[C@@H](Cc1cc(I)c(O)c(I)c1)C(=O)O", "Class Assignment": "inactive"}
{"Compound": "O=C(O)CCC(=O)c1ccc(-c2ccccc2)cc1", "Class Assignment": "inactive"}
{"Compound": "Cc1ccccc1S(N)(=O)=O", "Class Assignment": "inactive"}
{"Compound": "CC(=O)c1ccc[nH]1", "Class Assignment": "inactive"}
{"Compound": "O=C(O)c1cccc(C[C@@H]2COc3ccc(OCc4nc5cc(F)ccc5s4)cc3[C@@H]2O)c1", "Class Assignment": "inactive"}

* * *

# Method Description: A CellTox Green Cytotoxicity Assay to monitor cytotoxicity in HEK293 cells - 40 hour (AID 1224871); also: nearly all actives have a fitted effect of over 45% in size
# Experimental Conditions: CellTox Green fluorescence; series mostly up to 76.8 µM
Results filed as inconclusive are left out. The source made the active and inactive calls. Calls follow the shape of the dose curve; as a rule, active = well fitted activation curve with a large enough effect in the repeat runs; inconclusive = weak or mixed curves; inactive = flat fitted curve, though single readings scatter.
Classes used: active, inactive

{"Molecule": "COc1ccc(-c2cc(=S)ss2)cc1", "Class Assignment": "inactive"}
{"Molecule": "Cc1ccc(N(CC2=NCCN2)c2cccc(O)c2)cc1", "Class Assignment": "inactive"}
{"Molecule": "Cc1ccc(NC(=O)N(C)C)cc1NC(=O)N(C)C", "Class Assignment": "inactive"}
{"Molecule": "CCCCCCCCCCCCCCCCCC(=O)OCC(CC)CCCC (centres undefined)", "Class Assignment": "inactive"}
{"Molecule": "CC(C)(C(=O)c1cccnc1)c1cccnc1", "Class Assignment": "inactive"}
{"Molecule": "CC1CCc2nccnc21 (centres undefined)", "Class Assignment": "inactive"}
{"Molecule": "Cc1cccc(C)c1NC(=O)c1cc(S(N)(=O)=O)c(Cl)cc1O", "Class Assignment": "inactive"}
{"Molecule": "CCCCCCC(O)CCCCCCCCCCC(=O)OC (centres undefined)", "Class Assignment": "inactive"}
{"Molecule": "O=S(=O)(O)CO", "Class Assignment": "inactive"}
{"Molecule": "O=C(O)c1cccc(Oc2ccccc2)c1", "Class Assignment": "inactive"}
{"Molecule": "CC(=O)c1ccc[nH]1", "Class Assignment": "inactive"}
{"Molecule": "CS(=O)(=O)c1ccc([C@@H](C[C@H]2CCC(=O)C2)C(=O)Nc2cnccn2)cc1Cl", "Class Assignment": "inactive"}
{"Molecule": "CC(C)(C)S", "Class Assignment": "inactive"}
{"Molecule": "O=C(O)CCC(=O)OC[C@@H](NC(=O)C(Cl)Cl)[C@H](O)c1ccc([N+](=O)[O-])cc1", "Class Assignment": "active"}
{"Molecule": "O=C(O)c1cc(Cl)cc(Cl)c1O", "Class Assignment": "inactive"}
{"Molecule": "COc1cc(S(=O)(=O)Nc2ccccc2)c(OC)cc1N", "Class Assignment": "inactive"}
{"Molecule": "COc1ccc(N)c([N+](=O)[O-])c1", "Class Assignment": "inactive"}
{"Molecule": "CC[C@H]1OC(=O)[C@H](C)[C@@H](O[C@H]2C[C@@](C)(OC)[C@@H](O)[C@H](C)O2)[C@H](C)[C@@H](O[C@@H]2O[C@H](C)C[C@H](N(C)C)[C@H]2O)[C@](C)(O)C[C@@H](C)CN(C)[C@H](C)[C@@H](O)[C@]1(C)O", "Class Assignment": "inactive"}
{"Molecule": "CC(C)c1ccc(C#N)cc1", "Class Assignment": "inactive"}
{"Molecule": "COC(=O)C1=C(C)NC(C)=C(C(=O)OC(C)(C)CN(C)CCC(c2ccccc2)c2ccccc2)C1c1cccc([N+](=O)[O-])c1 (centres undefined)", "Class Assignment": "inactive"}
{"Molecule": "Nc1ccc(N=Nc2ccc(N)cc2)cc1", "Class Assignment": "inactive"}
{"Molecule": "OCC(CO)n1cnc(-c2ccc(F)cc2)c1-c1ccnc(Oc2ccccc2)n1", "Class Assignment": "inactive"}
{"Molecule": "NC(=O)CCCCC(N)=O", "Class Assignment": "inactive"}
{"Molecule": "COC(CC(C)CCCC(C)(C)O)OC (centres undefined)", "Class Assignment": "inactive"}
{"Molecule": "C=CC(=O)NC(C)C", "Class Assignment": "inactive"}
{"Molecule": "COc1ccc(/C=C/C(=O)c2ccc(OC)cc2OC)cc1", "Class Assignment": "inactive"}
{"Molecule": "CCOC(=O)c1ccc(NC(=O)CN2CCCCC2)cc1", "Class Assignment": "inactive"}
{"Molecule": "CC(C)COC(=O)COc1cc(Cl)c(Cl)cc1Cl", "Class Assignment": "inactive"}
{"Molecule": "COC(OC)OC", "Class Assignment": "inactive"}
{"Molecule": "CC(C)(C)C1(CCc2ccc(Cl)cc2)CO1 (centres undefined)", "Class Assignment": "inactive"}
{"Molecule": "CC1=CC[C@@]23C[C@@H]1C(C)(C)[C@@H]2CC[C@H]3C", "Class Assignment": "inactive"}
{"Molecule": "CCC(CO)(CO)CO", "Class Assignment": "inactive"}
{"Molecule": "CC(C(=O)O)c1ccc(C(=O)c2cccs2)cc1 (centres undefined)", "Class Assignment": "inactive"}
{"Molecule": "CC1CCCC(=O)C1=O (centres undefined)", "Class Assignment": "inactive"}
{"Molecule": "CC1=C2[C@@H]([C@H](C)CC[C@H]2/C=C(\\C)C(=O)O)[C@H](O)C1", "Class Assignment": "inactive"}
{"Molecule": "c1ccc(CNc2ncnc3c2ncn3C2CCCCO2)cc1 (centres undefined)", "Class Assignment": "inactive"}
{"Molecule": "O=C1OC[C@H](Cc2cccc(O)c2)[C@H]1Cc1cccc(O)c1", "Class Assignment": "inactive"}
{"Molecule": "CC(C)N(C)C", "Class Assignment": "inactive"}
{"Molecule": "CC(CO)(CO)C(=O)O", "Class Assignment": "inactive"}
{"Molecule": "N[C@@H](Cc1cc(I)c(O)c(I)c1)C(=O)O", "Class Assignment": "inactive"}
{"Molecule": "Cc1cccc2sc(N)nc12", "Class Assignment": "inactive"}
{"Molecule": "Nc1ccn([C@H]2CS[C@@H](CO)O2)c(=O)n1", "Class Assignment": "inactive"}
{"Molecule": "CNS(=O)(=O)c1cc(C(=O)N2CCC(CCN3C4CCC3CC(n3c(C)nc5ccccc53)C4)(c3cccc(F)c3)CC2)c(Cl)cc1F (centres undefined)", "Class Assignment": "inactive"}
{"Molecule": "O=C(O)CCC(=O)c1ccc(-c2ccccc2)cc1", "Class Assignment": "inactive"}
